- Protocol Description: Pharmacokinetics in female BALB/c nude mice bearing A375 xenografts, 1 day dosing (PK and PD study): plasma, tumor and brain concentrations, AUC
- Assay type: in vivo
- Measurement Context: mouse, tumor, po, 1.5 mg/kg, Compound 141; 1.5 mg/kg p.o. BID × 1 day; post 2nd dose; 2 h; read-out: Mean Concentration in Tumor ± SEM
Quantity Kind: concentration at 2 h (ng/g)

>>> readout_value("CCN(C)S(=O)(=O)Nc1ccc(F)c(Oc2ccc3ncn(C4CC5(CCN(C6CC7(C6)CN(c6cc8c(cc6F)c(N6CCC(=O)NC6=O)nn8C)C7)CC5)C4)c(=O)c3c2)c1C#N (stereo not shown) [Compound 141]")
382

---

- Protocol Description: Pharmacokinetics after 21 days dosing in the efficacy study (plasma, tumor and brain concentrations; plasma AUC at steady state), Example 14
- Type: in vivo, female BALB/c nude mice
- Measurement Context: mouse, plasma, po; 1.5 mg/kg p.o. BID x 21 days; 10 h; mean ± SEM
Quantity Kind: concentration at 10 h (ng/mL)

>>> readout_value("CCN(C)S(=O)(=O)Nc1ccc(F)c(Oc2ccc3ncn([C@H]4COC5(CCN(C6CC7(C6)CN(c6cc8c(cc6F)c(N6CCC(=O)NC6=O)nn8C)C7)CC5)C4)c(=O)c3c2)c1C#N [Compound 26]")
694
>>> readout_value("CCN(C)S(=O)(=O)Nc1ccc(F)c(Oc2ccc3ncn(C4CC5(CCN(C6CC7(C6)CN(c6cc8c(cc6F)c(N6CCC(=O)NC6=O)nn8C)C7)CC5)C4)c(=O)c3c2)c1C#N (centres unmarked) [Compound 141]")
328

---

- Protocol Description: Pharmacokinetics after 21 days dosing in the efficacy study (plasma, tumor and brain concentrations; plasma AUC at steady state), Example 14
- Assay type: in vivo, female BALB/c nude mice
- Measurement Context: mouse, plasma, po; 3 mg/kg p.o. QD x 21 days; 2 h; mean ± SEM
Quantity Kind: concentration at 2 h (ng/mL)

>>> readout_value("CCN(C)S(=O)(=O)Nc1ccc(F)c(Oc2ccc3ncn(C4CC5(CCN(C6CC7(C6)CN(c6cc8c(cc6F)c(N6CCC(=O)NC6=O)nn8C)C7)CC5)C4)c(=O)c3c2)c1C#N (stereo not shown)")
5290

---

- Protocol Description: Pharmacokinetics in female BALB/c nude mice bearing A375 xenografts, 1 day dosing (PK and PD study): plasma, tumor and brain concentrations, AUC
- Format: in vivo
- Measurement Context: mouse, tumor, po, 0.75 mg/kg, 0.75 mg/kg p.o. BID × 1 day; post 2nd dose; 10 h; read-out: Mean Concentration in Tumor ± SEM
Quantity Kind: concentration at 10 h (ng/g)

>>> readout_value("CCN(C)S(=O)(=O)Nc1ccc(F)c(Oc2ccc3ncn(C4CC5(CCN(C6CC7(C6)CN(c6cc8c(cc6F)c(N6CCC(=O)NC6=O)nn8C)C7)CC5)C4)c(=O)c3c2)c1C#N (stereo not shown)")
93

---

- Protocol Description: Pharmacokinetics in female BALB/c nude mice bearing A375 xenografts, 1 day dosing (PK and PD study): plasma, tumor and brain concentrations, AUC
- Assay type: in vivo
- Measurement Context: mouse, plasma, po, 3 mg/kg, 3 mg/kg p.o. QD × 1 day; 4 h; read-out: Mean Concentration in Plasma ± SEM
Quantity Kind: concentration at 4 h (µg/mL)

>>> readout_value("CCN(C)S(=O)(=O)Nc1ccc(F)c(Oc2ccc3ncn(C4CC5(CCN(C6CC7(C6)CN(c6cc8c(cc6F)c(N6CCC(=O)NC6=O)nn8C)C7)CC5)C4)c(=O)c3c2)c1C#N (stereo not shown)")
1.44
